experiment: Stability of cannabinoid and Vitamin E components of Beverage 2 (AB Red) stored at 8° C. and 21-25° C., LCMSMS over 570 days; details: 8° C., 8 days
measured attribute: Stability of Cannabinoids in AB Red (µg/mL)

compound="CCCCCc1cc(O)c2c(c1)OC(C)(C)c1ccc(C)cc1-2 [CBN, cannabinol]" measured_attribute="Stability of Cannabinoids in AB Red" experimental_result=2.80
compound="CCCCCc1cc(O)c(C/C=C(\\C)CCC=C(C)C)c(O)c1 [CBG, cannabigerol]" measured_attribute="Stability of Cannabinoids in AB Red" experimental_result=4.76
compound="CCCCCc1cc(O)c2c(c1)OC(C)(CCC=C(C)C)C=C2 (stereo not drawn) [CBC, cannabichromene]" measured_attribute="Stability of Cannabinoids in AB Red" experimental_result=0.286
compound="C=C(C)[C@@H]1CCC(C)=C[C@H]1c1c(O)cc(CCC)cc1O [CBDV, cannabidivarin]" measured_attribute="Stability of Cannabinoids in AB Red" experimental_result=0.198
compound="C=C(C)[C@@H]1CCC(C)=C[C@H]1c1c(O)cc(CCCCC)c(C(=O)O)c1O [CBDA, cannabidiolic acid]" measured_attribute="Stability of Cannabinoids in AB Red" experimental_result=1.68
compound="CCCc1cc(O)c2c(c1)OC(C)(C)[C@@H]1CCC(C)=C[C@@H]21 [THCV, delta-9-tetrahydrocannabivarin]" measured_attribute="Stability of Cannabinoids in AB Red" experimental_result=3.17
compound="CCCCCc1cc(O)c2c(c1)OC1(C)CCC3C1C2C3(C)C (stereo not drawn) [CBL, cannabicyclol]" measured_attribute="Stability of Cannabinoids in AB Red" experimental_result=0.496
compound="CCCCCc1cc(O)c2c(c1)OC(C)(C)[C@@H]1CCC(C)=C[C@@H]21 [D9 THC, delta-9-tetrahydrocannabinol, reference compound]" measured_attribute="Stability of Cannabinoids in AB Red" experimental_result=12.6
compound="CCCCCc1cc2c(c(O)c1C(=O)O)[C@@H]1C=C(C)CC[C@H]1C(C)(C)O2 [D9 THCA, delta-9-tetrahydrocannabinolic acid]" measured_attribute="Stability of Cannabinoids in AB Red" experimental_result=1.35

* * *

test: Stability of cannabinoid and Vitamin E components of Beverage 2 (AB Red) stored at 8° C. and 21-25° C., LCMSMS over 570 days; conditions: 21-25° C., 24 days
Class key for Stability of Cannabinoids in AB Red values: low interval: < 0.5 µg/mL; middle interval: ≥ 0.5 µg/mL and < 3 µg/mL; high interval: ≥ 3 µg/mL

compound="CCCCCc1cc(O)c2c(c1)OC(C)(CCC=C(C)C)C=C2 (stereo not drawn)" cat="low interval"
compound=C=C(C)[C@@H]1CCC(C)=C[C@H]1c1c(O)cc(CCC)cc1O cat="low interval"
compound="CCCCCc1cc(O)c2c(c1)OC(C)(C)[C@@H]1CCC(C)=C[C@@H]21 [D9 THC, delta-9-tetrahydrocannabinol, reference compound]" cat="high interval"
compound=CCCCCc1cc(O)c(C/C=C(\C)CCC=C(C)C)c(O)c1 cat="high interval"
compound="CCCCCc1cc2c(c(O)c1C(=O)O)[C@@H]1C=C(C)CC[C@H]1C(C)(C)O2 [D9 THCA, delta-9-tetrahydrocannabinolic acid]" cat="middle interval"
compound=C=C(C)[C@@H]1CCC(C)=C[C@H]1c1c(O)cc(CCCCC)c(C(=O)O)c1O cat="middle interval"
compound=CCCCCc1cc(O)c2c(c1)OC(C)(C)c1ccc(C)cc1-2 cat="middle interval"
compound="CCCc1cc(O)c2c(c1)OC(C)(C)[C@@H]1CCC(C)=C[C@@H]21 [THCV, delta-9-tetrahydrocannabivarin]" cat="high interval"

* * *

Measured Stability of Cannabinoids in AB Red, listed per entry for reference.
assay: Stability of cannabinoid and Vitamin E components of Beverage 2 (AB Red) stored at 8° C. and 21-25° C., LCMSMS over 570 days; details: 8° C., 0 days
measured attribute: Stability of Cannabinoids in AB Red (µg/mL)

molecule="C=C(C)[C@@H]1CCC(C)=C[C@H]1c1c(O)cc(CCCCC)c(C(=O)O)c1O [CBDA, cannabidiolic acid]" unit_of_measure=µg/mL experimental_result=1.68
molecule="CCCCCc1cc2c(c(O)c1C(=O)O)[C@@H]1C=C(C)CC[C@H]1C(C)(C)O2 [D9 THCA, delta-9-tetrahydrocannabinolic acid]" unit_of_measure=µg/mL experimental_result=1.35
molecule="CCCCCc1cc(O)c2c(c1)OC(C)(CCC=C(C)C)C=C2 (stereo not drawn) [CBC, cannabichromene]" unit_of_measure=µg/mL experimental_result=0.290
molecule="CCCCCc1cc(O)c2c(c1)OC1(C)CCC3C1C2C3(C)C (stereo not drawn) [CBL, cannabicyclol]" unit_of_measure=µg/mL experimental_result=0.510
molecule="CCCCCc1cc(O)c2c(c1)OC(C)(C)[C@@H]1CCC(C)=C[C@@H]21 [D9 THC, delta-9-tetrahydrocannabinol, reference compound]" unit_of_measure=µg/mL experimental_result=12.9
molecule="CCCc1cc(O)c2c(c1)OC(C)(C)[C@@H]1CCC(C)=C[C@@H]21 [THCV, delta-9-tetrahydrocannabivarin]" unit_of_measure=µg/mL experimental_result=3.22
molecule="C=C(C)[C@@H]1CCC(C)=C[C@H]1c1c(O)cc(CCC)cc1O [CBDV, cannabidivarin]" unit_of_measure=µg/mL experimental_result=0.200
molecule="CCCCCc1cc(O)c(C/C=C(\\C)CCC=C(C)C)c(O)c1 [CBG, cannabigerol]" unit_of_measure=µg/mL experimental_result=4.75
molecule="CCCCCc1cc(O)c2c(c1)OC(C)(C)c1ccc(C)cc1-2 [CBN, cannabinol]" unit_of_measure=µg/mL experimental_result=2.81

* * *

Stability in Powder Concentrate (content by LCMSMS) values, listed per item
type: physicochemical; conditions: stored at room temperature (21-25° C.), day 120
measured attribute: Stability in Powder Concentrate (content by LCMSMS) (mg/g powder)

compound="CCCCCc1cc2c(c(O)c1C(=O)O)[C@@H]1C=C(C)CC[C@H]1C(C)(C)O2 [D9 THCA, delta-9-tetrahydrocannabinolic acid]" experimental_result=0.147
compound="Cc1c(C)c2c(c(C)c1O)CC[C@@](C)(CCC[C@H](C)CCC[C@H](C)CCCC(C)C)O2 [α-Tocopherol]" experimental_result=4.93
compound="CCCCCc1cc(O)c2c(c1)OC(C)(C)c1ccc(C)cc1-2 [CBN, cannabinol]" experimental_result=0.498
compound="C=C(C)[C@@H]1CCC(C)=C[C@H]1c1c(O)cc(CCCCC)cc1O [CBD, cannabidiol, reference compound]" experimental_result=5.80
compound="CCCCCc1cc(O)c2c(c1)OC1(C)CCC3C1C2C3(C)C (stereo not shown) [CBL, cannabicyclol]" experimental_result=0.048
compound="CC(=O)Oc1c(C)c(C)c2c(c1C)CCC(C)(CCC[C@H](C)CCC[C@H](C)CCCC(C)C)O2 (stereo partly drawn) [α-Tocopheryl acetate]" experimental_result=2.17
compound="C=C(C)[C@@H]1CCC(C)=C[C@H]1c1c(O)cc(CCCCC)c(C(=O)O)c1O [CBDA, cannabidiolic acid]" experimental_result=0.403
compound="CCCCCc1cc(O)c(C/C=C(\\C)CCC=C(C)C)c(O)c1 [CBG, cannabigerol]" experimental_result=1.09
compound="CCCCCc1cc(O)c2c(c1)OC(C)(CCC=C(C)C)C=C2 (stereo not shown) [CBC, cannabichromene]" experimental_result=0.072
compound="C=C(C)[C@@H]1CCC(C)=C[C@H]1c1c(O)cc(CCC)cc1O [CBDV, cannabidivarin]" experimental_result=0.050
compound="CCCc1cc(O)c2c(c1)OC(C)(C)[C@@H]1CCC(C)=C[C@@H]21 [THCV, delta-9-tetrahydrocannabivarin]" experimental_result=0.658
compound="Cc1c(C)c2c(c(C)c1OC(=O)CCC(=O)O)CC[C@@](C)(CCC[C@H](C)CCC[C@H](C)CCCC(C)C)O2 [α-Tocopheryl succinate]" experimental_result=1.83
compound="CCCCCc1cc(O)c2c(c1)OC(C)(C)[C@@H]1CCC(C)=C[C@@H]21 [D9 THC, delta-9-tetrahydrocannabinol, reference compound]" experimental_result=2.66

* * *

assay type: physicochemical; details: stored at room temperature (21-25° C.), day 330
Stability in Powder Concentrate (content by LCMSMS) overview
measured attribute: Stability in Powder Concentrate (content by LCMSMS) (mg/g powder)

compound="Cc1c(C)c2c(c(C)c1OC(=O)CCC(=O)O)CC[C@@](C)(CCC[C@H](C)CCC[C@H](C)CCCC(C)C)O2 [α-Tocopheryl succinate]" unit_of_measure="mg/g powder" experimental_result=1.83
compound="CCCCCc1cc2c(c(O)c1C(=O)O)[C@@H]1C=C(C)CC[C@H]1C(C)(C)O2 [D9 THCA, delta-9-tetrahydrocannabinolic acid]" unit_of_measure="mg/g powder" experimental_result=0.156
compound="C=C(C)[C@@H]1CCC(C)=C[C@H]1c1c(O)cc(CCCCC)cc1O [CBD, cannabidiol, reference compound]" unit_of_measure="mg/g powder" experimental_result=6.01
compound=C=C(C)[C@@H]1CCC(C)=C[C@H]1c1c(O)cc(CCC)cc1O unit_of_measure="mg/g powder" experimental_result=0.052
compound="CCCCCc1cc(O)c2c(c1)OC1(C)CCC3C1C2C3(C)C (stereo not shown)" unit_of_measure="mg/g powder" experimental_result=0.049
compound=CCCCCc1cc(O)c(C/C=C(\C)CCC=C(C)C)c(O)c1 unit_of_measure="mg/g powder" experimental_result=1.10
compound=Cc1c(C)c2c(c(C)c1O)CC[C@@](C)(CCC[C@H](C)CCC[C@H](C)CCCC(C)C)O2 unit_of_measure="mg/g powder" experimental_result=4.81
